Cited source for all entries: patent US8883793B2

test system: U937; assay: MTS assay, U937; assay type: cell-based; details: Homo sapiens, U-937, 72 h, read-out: IC50 from MTS assay
pIC50: −log10 of the molar value.
Reported Metric: pIC50

- Structure Smiles: "COc1ccc(Sc2cnc(NC(=O)CCc3cccnc3)s2)cc1"
  Reported Metric: "pIC50"
  Observed Value: 7.63

---

system: biotinylated tubulin; experiment: Colchicine competitive-binding assay; settings: at 10 μM concentration; 3H-colchicine; left column pair of Table 7
Recorded binding rate (%) (colchicine competitive-binding) for the following compounds
Reported Metric: binding rate (%) (colchicine competitive-binding)

- Structure Smiles: "COc1ccc(Sc2cnc(NC(=O)CCc3ccccc3)s2)cc1"
  Assayed Target: "biotinylated tubulin"
  Endpoint Unit: "%"
  Observed Value: 85.2
- Structure Smiles: "Cc1nc(NC(=O)CCc2ccc(F)cc2)sc1Cc1ccc2c(c1)OCO2"
  Assayed Target: "biotinylated tubulin"
  Endpoint Unit: "%"
  Observed Value: 57.9
- Structure Smiles: "Cc1ccc(CCC(=O)Nc2ncc(Oc3ccc(F)cc3)s2)o1"
  Assayed Target: "biotinylated tubulin"
  Endpoint Unit: "%"
  Observed Value: 54.4
- Structure Smiles: "O=C(CCc1ccc(F)cc1)Nc1ncc(Cc2ccc(F)cc2)s1"
  Assayed Target: "biotinylated tubulin"
  Endpoint Unit: "%"
  Observed Value: 51.2
- Structure Smiles: "COc1ccc(Cc2cnc(NC(=O)CCc3cccnc3)s2)cc1OC"
  Assayed Target: "biotinylated tubulin"
  Endpoint Unit: "%"
  Observed Value: 76.9
- Structure Smiles: "COc1ccc(Cc2cnc(NC(=O)CCc3ccc(F)cc3)s2)cc1"
  Assayed Target: "biotinylated tubulin"
  Endpoint Unit: "%"
  Observed Value: 62.4
- Structure Smiles: "O=C(CCc1ccccc1)Nc1ncc(Cc2ccc3c(c2)OCO3)s1"
  Assayed Target: "biotinylated tubulin"
  Endpoint Unit: "%"
  Observed Value: 63.6
- Structure Smiles: "O=C(CCc1cccnc1)Nc1ncc(Cc2ccc(F)cc2)s1"
  Assayed Target: "biotinylated tubulin"
  Endpoint Unit: "%"
  Observed Value: 58.6
- Structure Smiles: "COc1ccc(Cc2cnc(NC(=O)CCc3ccccc3)s2)cc1"
  Assayed Target: "biotinylated tubulin"
  Endpoint Unit: "%"
  Observed Value: 77.5
- Structure Smiles: "COc1ccc(Cc2cnc(NC(=O)CCc3ccc(-c4ccccc4)cc3)s2)c(OC)c1OC"
  Assayed Target: "biotinylated tubulin"
  Endpoint Unit: "%"
  Observed Value: 68.8
- Structure Smiles: "COc1ccc2cc(Cc3cnc(NC(=O)CCc4ccc(F)cc4)s3)ccc2c1"
  Assayed Target: "biotinylated tubulin"
  Endpoint Unit: "%"
  Observed Value: 60.0
- Structure Smiles: "COc1ccc(Cc2cnc(NC(=O)CCc3ccc(C)o3)s2)c(OC)c1OC"
  Assayed Target: "biotinylated tubulin"
  Endpoint Unit: "%"
  Observed Value: 88.3
- Structure Smiles: "COc1ccc(Cc2cnc(NC(=O)CCc3ccc(F)cc3)s2)c(OC)c1OC"
  Assayed Target: "biotinylated tubulin"
  Endpoint Unit: "%"
  Observed Value: 73.3
- Structure Smiles: "COc1cc(Cc2cnc(NC(=O)CCc3ccccc3)s2)cc(OC)c1OC"
  Assayed Target: "biotinylated tubulin"
  Endpoint Unit: "%"
  Observed Value: 64.9
- Structure Smiles: "O=C(CCc1ccccc1)Nc1ncc(Cc2ccc(C(F)(F)F)cc2)s1"
  Assayed Target: "biotinylated tubulin"
  Endpoint Unit: "%"
  Observed Value: 55.4
- Structure Smiles: "COc1ccc(Cc2cnc(NC(=O)CCc3cccnc3)s2)c(OC)c1OC"
  Assayed Target: "biotinylated tubulin"
  Endpoint Unit: "%"
  Observed Value: 78.7
- Structure Smiles: "Cc1nc(NC(=O)CCc2cccnc2)sc1Cc1ccc2c(c1)OCO2"
  Assayed Target: "biotinylated tubulin"
  Endpoint Unit: "%"
  Observed Value: 55.3
- Structure Smiles: "COc1ccc(Sc2cnc(NC(=O)CCc3ccc(C)o3)s2)cc1"
  Assayed Target: "biotinylated tubulin"
  Endpoint Unit: "%"
  Observed Value: 86.0
- Structure Smiles: "COc1ccc(Sc2cnc(NC(=O)CCc3cccnc3)s2)cc1"
  Assayed Target: "biotinylated tubulin"
  Endpoint Unit: "%"
  Observed Value: 92.9
- Structure Smiles: "COc1cccc(CCC(=O)Nc2nc(C)c(Cc3ccc4c(c3)OCO4)s2)c1"
  Assayed Target: "biotinylated tubulin"
  Endpoint Unit: "%"
  Observed Value: 63.3
- Structure Smiles: "COc1ccc(Cc2cnc(NC(=O)CCc3ccccc3)s2)c(OC)c1OC"
  Assayed Target: "biotinylated tubulin"
  Endpoint Unit: "%"
  Observed Value: 75.4
- Structure Smiles: "Cc1ccc(CCC(=O)Nc2ncc(Cc3ccccc3)s2)o1"
  Assayed Target: "biotinylated tubulin"
  Endpoint Unit: "%"
  Observed Value: 50.2
- Structure Smiles: "Cc1nc(NC(=O)CCc2ccccc2)sc1-c1ccc(F)cc1"
  Assayed Target: "biotinylated tubulin"
  Endpoint Unit: "%"
  Observed Value: 76.3
- Structure Smiles: "COc1ccc(Cc2cnc(NC(=O)CCc3ccc(C)o3)s2)cc1"
  Assayed Target: "biotinylated tubulin"
  Endpoint Unit: "%"
  Observed Value: 63.8
- Structure Smiles: "COc1ccc(Cc2cnc(NC(=O)CCc3cccnc3)s2)cc1"
  Assayed Target: "biotinylated tubulin"
  Endpoint Unit: "%"
  Observed Value: 88.6
- Structure Smiles: "Cc1nc(NC(=O)CCc2ccccc2)sc1Cc1ccc2c(c1)OCO2"
  Assayed Target: "biotinylated tubulin"
  Endpoint Unit: "%"
  Observed Value: 64.6
